# experimental protocol: qHTS of pediatric cancer cell lines to identify multiple opportunities for drug repurposing: Primary screen for LAN-5 cells (AID 1347100)
# run parameters: LAN-5 neuroblastoma viability, CellTiter-Glo luminescence, 48 h; series mostly up to 46 µM
Inconclusive results are not listed. Calls of active or inactive are those of the source. Calls follow the shape of the dose curve; as a rule, active = well fitted cell-killing curve with a large enough effect; inconclusive = small, poorly fitted or top-dose-only effect; inactive = no such curve, though single readings can be large or run the other way.
Give one outcome, nothing more. List: T for active, F for inactive

compound	discrete label
CCC1(c2ccccc2)C(=O)NCNC1=O	F
Nc1nnc(-c2cccc(Cl)c2Cl)c(N)n1	F
Cn1ccc2cc3c(cc21)CCN3C(=O)Nc1cccnc1	F
Nc1c2c(nc3ccccc13)CCCC2	F

Given Cc1ccc(-c2cc(C(F)(F)F)nn2-c2ccc(S(N)(=O)=O)cc2)cc1 , state the outcome it received in this test. F

In this assay, the call recorded for COc1ccc(CCN(C)CCCC(C#N)(c2ccc(OC)c(OC)c2)C(C)C)cc1OC (stereo not given) was what? F

Which outcome was assigned to O=C(C1CCCCC1)N1CC(=O)N2CCc3ccccc3C2C1 (stereo not given) in this test? F
